# MEASUREMENT_PROTOCOL: Kinetic solubility in SGF, FaSSIF, FeSSIF and water
# Format: physicochemical
# COND: FaSSIF, thermodynamic from solid, FaSSIF, 24 hours; read-out: Kinetic solubility (concentration of Compound I in saturated solution)
MEASURED_PROPERTY: solubility kinetic at 24 h

For record Cc1nc(C(=O)NCC(=O)O)c(O)c2ccc(Oc3ccccc3)cc12 [WO2014014835 Form A, reference compound] the listed solubility kinetic at 24 h is 570 µg/mL

The reported measurements were obtained from patent US20220251044A1.
